# Measured Target: NAD-dependent protein deacetylase sirtuin-1 (Homo sapiens)
# Sequence (whole entry): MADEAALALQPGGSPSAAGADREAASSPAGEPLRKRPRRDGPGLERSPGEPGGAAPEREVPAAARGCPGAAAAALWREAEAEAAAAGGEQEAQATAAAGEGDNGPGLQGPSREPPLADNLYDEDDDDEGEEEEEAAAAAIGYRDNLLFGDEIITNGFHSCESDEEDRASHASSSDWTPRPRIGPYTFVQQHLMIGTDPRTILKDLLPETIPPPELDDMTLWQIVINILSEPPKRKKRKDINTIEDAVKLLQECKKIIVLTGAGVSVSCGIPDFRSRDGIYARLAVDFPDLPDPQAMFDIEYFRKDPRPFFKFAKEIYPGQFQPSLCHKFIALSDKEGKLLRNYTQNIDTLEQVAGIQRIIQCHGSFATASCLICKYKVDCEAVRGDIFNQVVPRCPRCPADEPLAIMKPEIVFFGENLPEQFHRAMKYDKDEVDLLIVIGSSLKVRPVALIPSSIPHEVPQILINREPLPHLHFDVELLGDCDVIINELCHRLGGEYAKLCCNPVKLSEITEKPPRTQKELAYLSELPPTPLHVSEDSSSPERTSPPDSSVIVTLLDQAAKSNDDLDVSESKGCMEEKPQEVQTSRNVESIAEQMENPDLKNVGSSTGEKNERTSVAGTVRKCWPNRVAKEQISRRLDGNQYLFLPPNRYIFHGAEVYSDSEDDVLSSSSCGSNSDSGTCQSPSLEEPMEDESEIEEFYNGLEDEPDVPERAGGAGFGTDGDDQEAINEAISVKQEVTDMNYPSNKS
# Experimental Details: Inhibition of GST-tagged human SIRT1 (133 to 747 amino acids) using ZMAL as substrate at 200 uM after 4 hrs by fluorescence-based microplate reader method
Property Label: inhibition (%)
One number for each entry, in %.

Here's what some known entries look like.
Molecule: Cc1cc(C)nc(SCC(=O)Nc2nnc(C(F)(F)F)s2)n1
Property Label: inhibition
Recorded Number: 12

Molecule: Cc1cc(C)nc(SC(C)C(=O)Nc2ncc(Cc3cccc4ccccc34)s2)n1 (racemic)
Property Label: inhibition
Recorded Number: 17

Molecule: Cc1ccc(Cc2cnc(NC(=O)CSc3nc(C)cc(C)n3)s2)cc1
Property Label: inhibition
Recorded Number: 16

The following molecules each have a reported value; give each one's inhibition.
1. CCc1cc(CC)nc(SC(C)C(=O)Nc2ncc(Cc3ccc(OC)cc3)s2)n1 (racemic)
2. Cc1cc(C)nc(SCC(=O)Nc2ncc(Cc3ccc(-c4ccccc4)cc3)s2)n1
3. CCc1cc(CC)nc(SCC(=O)Nc2ncc(Cc3ccc(-c4ccccc4)cc3)s2)n1
4. CCOc1ccc2nc(NC(=O)CSc3nc(C)cc(C)n3)sc2c1
5. COc1ccc(Cc2cnc(NC(=O)/C=C/c3ccco3)s2)cc1

[18, 29, 10, 16, 28]

Hey, quick one: what's inhibition for each of these?
1. CCCc1cc(O)nc(SCC(=O)Nc2ncc(Cc3cccc4ccccc34)s2)n1
2. Cc1cc(C)nc(SCC(=O)Nc2ncc(Cc3ccccc3C)s2)n1

1: 22; 2: 14
